# TARGET DESC: linear peptide K1
# EXPERIMENTAL DETAILS: SPR
VALUE TYPE: Kd (nM)
The figure you give is taken to be in nM; do not add the unit.

Kd for mouse C5a protein (ligand) NLHLLRQKIEEQAAKYKHSVPKKCCYDGARVNFYETCEERVARVTIGPLCIRAFNECCTIANKIRKESPHKPVQLGR is 2850
